# Tested on: cocklebur (Xanthium strumarium)
# Protocol Details: Test C pre/postemergence
# Assay type: in vivo
# Details: Xanthium strumarium, pre-emergence, Preemergence, 62 g ai/ha; scale 0 to 100, 0 no effect, 100 complete control; read-out: Plant response rating, Cocklebur
Readout Kind: pest or weed control at 62 g/ha (%)
All answers are understood in %, so give the number only.

Problem: Give the reported value of pest or weed control at 62 g/ha for this record: COC(=O)c1nc(C2CC2)nc(N)c1Cl
Solution: 80

Problem: Identify measured pest or weed control at 62 g/ha associated with CCOC(=O)c1nc(C2CC2)nc(N)c1Br
Solution: 90

Problem: // Input: Nc1nc(-c2ccc(Cl)cc2)nc(C(=O)O)c1Cl . Output its pest or weed control at 62 g/ha only.
Solution: 50

Problem: Provide measured pest or weed control at 62 g/ha value, entry: COC(=O)c1nc(C2CC2)nc(N)c1F
Solution: 60

Consider the additional compound presented here.
Problem: Consider the compound Nc1nc(-c2ccc(Br)cc2)nc(C(=O)O)c1Cl . State its measured pest or weed control at 62 g/ha.
Solution: 60

###

Measured pest or weed control at 500 g/ha of individual entries
# System: Surinam grass (Brachiaria decumbens)
# Protocol Details: Test B pre/postemergence
# Type: in vivo
# Details: Urochloa decumbens, post-emergence, Postemergence, 500 g ai/ha; scale 0 to 100; read-out: Plant response rating, Surinam Grass
Answer in %, number only, no unit symbol.

Below, each entry is followed by its recorded pest or weed control at 500 g/ha result.
Problem: State its pest or weed control at 500 g/ha: Nc1nc(C2CC2)nc(C(=O)OCc2ccccc2)c1Br [Compound 22]
Solution: 90

Problem: Give the value of pest or weed control at 500 g/ha reported for the following: COC(=O)c1nc(C2CC2)nc(N)c1F [Compound 25]
Solution: 70

Problem: Given the compound Nc1nc(C2CC2)nc(C=O)c1F [Compound 24] , write its reported pest or weed control at 500 g/ha.
Solution: 10

Next compound, pest or weed control at 500 g/ha to be filled in.
Problem: Fill in pest or weed control at 500 g/ha for record Nc1nc(C2CC2)nc(C(=O)O)c1Br [Compound 8]
Solution: 90

###

Catalogue of Plant response rating, Sprangletop, Brdd. values
# Tested on: bearded (brdd.) sprangletop (Leptochloa fusca ssp. fascicularis)
# Protocol Details: Test E flooded paddy water application
# Type: in vivo
# Details: Flood, 16 g ai/ha; scale 0 to 100 (0 no effect, 100 complete control); 21 days
# From the text: Three plastic pots (ca. 16-cm diameter) per rate were partially filled with sterilized Tama silt loam soil comprising a 35:50:15 ratio of sand, silt and clay and 2.6% organic matter. Separate plantings for each of the three pots were as follows. Seeds from the U.S. of ducksalad (Heteranthera limosa), smallflower umbrella sedge (Cyperus difformis) and purple redstem (Ammannia coccinea), were planted into one 16-cm pot for each rate. […]
# output: bare number, no unit

Worked examples follow.
Problem: Identify the reported Plant response rating, Sprangletop, Brdd. for the following entry. COC(=O)c1nc(-c2ccc(Cl)cc2)nc(N)c1Cl
Solution: 20

Problem: Give Plant response rating, Sprangletop, Brdd. for CCOC(=O)c1nc(-c2ccc(OC)cc2)nc(N)c1Cl
Solution: 0

Problem: State its Plant response rating, Sprangletop, Brdd.: Nc1nc(-c2ccc(Cl)cc2)nc(C(=O)O)c1Br
Solution: 0

Others:
Problem: Indicate the recorded Plant response rating, Sprangletop, Brdd. value for this molecule: Nc1nc(-c2ccc(Cl)cc2)nc(C(=O)[O-])c1Cl.[Na+]
Solution: 0

Problem: Consider the molecule CCOC(=O)c1nc(-c2ccc(Cl)c(Cl)c2)nc(N)c1Br . State its measured Plant response rating, Sprangletop, Brdd..
Solution: 0

Problem: Provide one value: measured Plant response rating, Sprangletop, Brdd. of CCOC(=O)c1nc(-c2ccc3c(c2)OCO3)nc(N)c1Cl
Solution: 0

Problem: Tell us which Plant response rating, Sprangletop, Brdd. value is on record for CCOC(=O)c1nc(-c2ccc(Cl)cc2)nc(N)c1Br
Solution: 0
